In what follows, each item is paired with its MIC for Providencia 12052.
Return type: number; implicit unit µg/mL.

These recorded examples may help you get a feel for the data.
CCn1cc(C(=O)O)c(=O)c2cc(F)c(N3CCNCC3)cc21 [Norfloxacin, reference compound] ... 64
CC1CN(c2c(Cl)cc3c(=O)c(C(=O)O)cn(C4CC4)c3c2F)CC(C)N1 (centres unmarked) ... 32

QUERY: Could you share what MIC was measured for O=C(O)c1cn(C2CC2)c2c(F)c(N3CCN(CCO)CC3)c(Cl)cc2c1=O , tested on Providencia 12052?
RESULT: 16

###

In what follows, each item is paired with its MIC for Staph. 1756.
Return type: number; implicit unit µg/mL.

CC(=O)CN1CCN(c2c(Cl)cc3c(=O)c(C(=O)O)cn(C4CC4)c3c2F)CC1.Cl [Example 13] ... 0.25
CC1CN(c2c(Cl)cc3c(=O)c(C(=O)O)cn(C4CC4)c3c2F)CC(C)N1 (centres unmarked) [Example 5] ... 0.5
CC1CN(c2c(F)cc3c(=O)c(C(=O)O)cn(C4CC4)c3c2Cl)CCN1 (centres unmarked) [Example 20] ... 0.06
CC(=O)CCN1CCN(c2c(Cl)cc3c(=O)c(C(=O)O)cn(C4CC4)c3c2F)CC1 [Example 12] ... 0.25
O=C(O)c1cn(C2CC2)c2c(F)c(N3CCNCC3)c(Cl)cc2c1=O [Example 1] ... 0.25

QUERY: Could you share what MIC was measured for CCn1cc(C(=O)O)c(=O)c2cc(F)c(N3CCNCC3)cc21 [Norfloxacin, reference compound] , tested on Staph. 1756?
RESULT: 1

QUERY: Could you share what MIC was measured for O=C(O)c1cn(C2CC2)c2c(F)c(N3CCN(CCO)CC3)c(Cl)cc2c1=O [Example 7] , tested on Staph. 1756?
RESULT: 0.5

###

Test system: E. coli 445/7
Experiment: MIC, agar dilution test
Assay type: cell-based
Settings: Escherichia coli, 445/7; E. coli 455/7 (second MIC table); agar dilution test/isosensitest medium
Test Readout: MIC

QUERY: Please report the recorded MIC for CC(=O)CCN1CCN(c2c(Cl)cc3c(=O)c(C(=O)O)cn(C4CC4)c3c2F)CC1 .
RESULT: 8 mg/L

QUERY: Please report the recorded MIC for CN1CCN(c2c(F)cc3c(=O)c(C(=O)O)cn(C4CC4)c3c2Cl)CC1 .
RESULT: 1 mg/L

QUERY: Please report the recorded MIC for CCn1cc(C(=O)O)c(=O)c2cc(F)c(N3CCNCC3)cc21 [Norfloxacin, reference compound] .
RESULT: 16 mg/L

QUERY: Please report the recorded MIC for CC1CN(c2c(F)cc3c(=O)c(C(=O)O)cn(C4CC4)c3c2Cl)CCN1 (centres unmarked) .
RESULT: 1 mg/L

###

Test system: Staph. 1756
Test: MIC, agar dilution test
Assay type: cell-based
Conditions: agar dilution test/isosensitest medium
Counter-ions that a name gives are not always drawn.
Test Readout: MIC (µg/mL)
Return type: number; implicit unit µg/mL.

CN1CCN(c2c(F)cc3c(=O)c(C(=O)O)cn(C4CC4)c3c2Cl)CC1 ... 0.06
CCC1CN(c2c(Cl)cc3c(=O)c(C(=O)O)cn(C4CC4)c3c2F)CCN1 (stereo not shown) ... 0.25
O=C(O)c1cn(C2CC2)c2c(Cl)c(N3CCNCC3)c(F)cc2c1=O [Example 21, hydrochloride] ... 0.125
CN1CCN(c2c(Cl)cc3c(=O)c(C(=O)O)cn(C4CC4)c3c2F)CC1 ... 0.5
CC1CN(c2c(Cl)cc3c(=O)c(C(=O)O)cn(C4CC4)c3c2Cl)CCN1 (stereo not shown) ... 0.125
CC1CN(c2c(Cl)cc3c(=O)c(C(=O)O)cn(C4CC4)c3c2F)CCN1 (stereo not shown) ... 0.5

QUERY: Please report the recorded MIC for O=C(O)c1cn(C2CC2)c2c(F)c(N3CCNC(C4CCCCC4)C3)c(Cl)cc2c1=O (stereo not shown) .
RESULT: 0.06

###

Each entry below carries its recorded MIC.
Test system: Klebsiella 63
Return type: number; implicit unit µg/mL.

These recorded examples may help you get a feel for the data.
O=C(O)c1cn(C2CC2)c2c(F)c(N3CCN(CCO)CC3)c(Cl)cc2c1=O ... 0.06
CN1CCN(c2c(Cl)cc3c(=O)c(C(=O)O)cn(C4CC4)c3c2F)CC1 ... 0.015
CC1CN(c2c(Cl)cc3c(=O)c(C(=O)O)cn(C4CC4)c3c2F)CCN1 (stereo not shown) ... 0.03
CC1CN(c2c(Cl)cc3c(=O)c(C(=O)O)cn(C4CC4)c3c2F)CC(C)N1 (stereo not shown) ... 0.03
CCC1CN(c2c(Cl)cc3c(=O)c(C(=O)O)cn(C4CC4)c3c2F)CCN1 (stereo not shown) ... 0.03

API: the following record is the query input.
QUERY: Could you share what MIC was measured for CN1CCN(c2c(F)cc3c(=O)c(C(=O)O)cn(C4CC4)c3c2Cl)CC1 , tested on Klebsiella 63?
RESULT: 0.03

###

Each entry below carries its recorded MIC.
Tested on: Klebsiella 63
Counter-ions that a name gives are not always drawn.
Return type: number; implicit unit µg/mL.

These recorded examples may help you get a feel for the data.
CCn1cc(C(=O)O)c(=O)c2cc(F)c(N3CCNCC3)cc21 [Norfloxacin, reference compound] ... 0.125
CCN1CCN(c2c(Cl)cc3c(=O)c(C(=O)O)cn(C4CC4)c3c2F)CC1 ... 0.125

QUERY: Please report the recorded MIC for O=C(CN1CCN(c2c(Cl)cc3c(=O)c(C(=O)O)cn(C4CC4)c3c2F)CC1)c1ccccc1 .
RESULT: 0.06

QUERY: Please report the recorded MIC for CC1CN(c2c(Cl)cc3c(=O)c(C(=O)O)cn(C4CC4)c3c2Cl)CCN1 (centres unmarked) .
RESULT: 0.03

QUERY: Please report the recorded MIC for O=C(O)c1cn(C2CC2)c2c(Cl)c(N3CCNCC3)c(F)cc2c1=O [Example 21, hydrochloride] .
RESULT: 0.06

###

In what follows, each item is paired with its MIC for Providencia 12052.
Return type: number; implicit unit µg/mL.

These recorded examples may help you get a feel for the data.
CC1CN(c2c(Cl)cc3c(=O)c(C(=O)O)cn(C4CC4)c3c2F)CCN1 (centres unmarked) ... 16
CC(=O)CN1CCN(c2c(Cl)cc3c(=O)c(C(=O)O)cn(C4CC4)c3c2F)CC1.Cl ... 16
CC1CN(c2c(F)cc3c(=O)c(C(=O)O)cn(C4CC4)c3c2Cl)CCN1 (centres unmarked) ... 4

QUERY: Could you share what MIC was measured for O=C(CN1CCN(c2c(Cl)cc3c(=O)c(C(=O)O)cn(C4CC4)c3c2F)CC1)c1ccccc1 , tested on Providencia 12052?
RESULT: 16

QUERY: Could you share what MIC was measured for CN1CCN(c2c(F)cc3c(=O)c(C(=O)O)cn(C4CC4)c3c2Cl)CC1 , tested on Providencia 12052?
RESULT: 4

###

System: E. coli 445/7
Test: MIC, agar dilution test
Format: cell-based
Conditions: Escherichia coli, 445/7; E. coli 455/7 (second MIC table); agar dilution test/isosensitest medium
Counter-ions that a name gives are not always drawn.
Test Readout: MIC (µg/mL)
Return type: number; implicit unit µg/mL.

These recorded examples may help you get a feel for the data.
O=C(CN1CCN(c2c(Cl)cc3c(=O)c(C(=O)O)cn(C4CC4)c3c2F)CC1)c1ccccc1 ... 2
CC(=O)CN1CCN(c2c(Cl)cc3c(=O)c(C(=O)O)cn(C4CC4)c3c2F)CC1.Cl ... 8
CC1CN(c2c(Cl)cc3c(=O)c(C(=O)O)cn(C4CC4)c3c2Cl)CCN1 (stereo not shown) ... 2

API: the following record is the query input.
QUERY: Please report the recorded MIC for O=C(O)c1cn(C2CC2)c2c(Cl)c(N3CCNCC3)c(F)cc2c1=O [Example 21, hydrochloride] .
RESULT: 1

###

Test system: Klebsiella 63
Assay: MIC, agar dilution test
Format: cell-based
Details: agar dilution test/isosensitest medium
Test Readout: MIC

CC(=O)CCN1CCN(c2c(Cl)cc3c(=O)c(C(=O)O)cn(C4CC4)c3c2F)CC1 ... ≤ 0.015 µg/mL

QUERY: Please report the recorded MIC for CC1CN(c2c(F)cc3c(=O)c(C(=O)O)cn(C4CC4)c3c2Cl)CCN1 (stereo not drawn) .
RESULT: ≤ 0.015 µg/mL

QUERY: Please report the recorded MIC for O=C(O)c1cn(C2CC2)c2c(F)c(N3CCNCC3)c(Cl)cc2c1=O .
RESULT: ≤ 0.015 µg/mL

###

Structures can show the parent of a compound that is named as a salt.
In what follows, each item is paired with its log10 of MIC for Providencia 12052.
Note: values are log10 of MIC expressed in µg/mL.

O=C(O)c1cn(C2CC2)c2c(Cl)c(N3CCNCC3)c(F)cc2c1=O [Example 21, hydrochloride] ... 0.00

QUERY: Please report the recorded log10 of MIC for CN1CCN(c2c(Cl)cc3c(=O)c(C(=O)O)cn(C4CC4)c3c2F)CC1 [Example 6] .
RESULT: 0.60

QUERY: Please report the recorded log10 of MIC for CC(=O)CCN1CCN(c2c(Cl)cc3c(=O)c(C(=O)O)cn(C4CC4)c3c2F)CC1 [Example 12] .
RESULT: 1.20

QUERY: Please report the recorded log10 of MIC for O=C(O)c1cn(C2CC2)c2c(F)c(N3CCNCC3)c(Cl)cc2c1=O [Example 1] .
RESULT: 0.90

QUERY: Please report the recorded log10 of MIC for CC1CN(c2c(Cl)cc3c(=O)c(C(=O)O)cn(C4CC4)c3c2Cl)CCN1 (stereo not drawn) [Example 22] .
RESULT: 0.30

QUERY: Please report the recorded log10 of MIC for CCC1CN(c2c(Cl)cc3c(=O)c(C(=O)O)cn(C4CC4)c3c2F)CCN1 (stereo not drawn) [Example 3] .
RESULT: 1.20
